What TGI was measured for each of the following?
# System: SNB-78 CNS
# protocol_text: NCI tumour cell line growth inhibition, 48 h
Numbers only, in µM.

Fill in TGI for each of the 3 molecules listed.
1. CN(C)CCC(/C=C/c1ccccc1)=N\Nc1ccccc1
2. COc1c(O)c2c(=O)cc3c4c5c(cc(=O)c6c(O)c(OC)c(CC(C)O)c(c(c1CC(C)O)c24)c65)OCO3 (stereo unspecified)
3. Cc1ccc(C)c(NC(=O)c2cccc([N+](=O)[O-])c2O)c1

# output
[14.7, 8.04, 56.9]

====

# Test system: SF-539 CNS
# protocol_text: NCI tumour cell line growth inhibition, 48 h
endpoint_label: TGI

For orientation, consider the following solved cases.
# molecule, TGI
rows = [
    ("O=c1oc2ccc(-c3ccc(F)cc3F)cc2c(=O)n1-c1cccc(C(F)(F)F)c1", "6.95 µM"),
    ("Cc1cc2c(=O)c3ccccc3[nH]c2c(C(N)=O)c1C", "> 100 µM"),
    ("COC(=O)C(Cc1ccc2c(c1)CCC2)Cc1ccc2c(c1)CCC2", "> 100 µM"),
    ("O=c1[nH][nH]c(=O)n1CCCCCCn1c(=O)[nH][nH]c1=O", "> 100 µM"),
]

Fill in TGI for each of the 8 molecules listed.
1. NC(N)=NCCCC(=O)O
2. O=C1CCC(c2ccccc2)=NN1c1nsc2ccccc12
3. S=C1NC2=C(CSC/C2=C\c2cccc(Br)c2)C(c2cccc(Br)c2)N1 (stereo not drawn)
4. COc1ccc(-c2ccc(=O)oc2C#Cc2cc(OC)c(OC)c(OC)c2)cc1O
5. CN(C)C(=S)/N=c1\sn(C)/c(=N\C(=S)N(C)C)n1C
6. COc1ccc(OCC(=O)O)c2c1CCCC2=O
7. NNC(=O)CNc1cccc(Br)c1
8. CCOC(=O)C1S/C(=N\C(=N)N[N+](=O)[O-])N=C1C (stereo not drawn)

# output
> 100 µM
> 100 µM
> 100 µM
1.16 µM
> 100 µM
> 100 µM
> 100 µM
> 100 µM

Fill in TGI for each of the 5 molecules listed.
1. Cc1nc(Nc2ccc(Cl)cc2)sc1C(=O)NNC(=S)NN
2. Cn1c(SCc2ccc(F)cc2)nnc1C12CC3CC(CC(C3)C1)C2
3. CCN1CN(c2ccccc2)C2(CCN(CC3COc4ccccc4O3)CC2)C1=O (stereo not drawn)
4. S=c1c2cn[nH]c2nc2scc(-c3ccc(Cl)cc3)n12
5. O=C1CCC2(c3ccc(Cl)cc3)Nc3cc(Cl)ccc3N12 (stereo not drawn)

# output
["31.8 µM", "65.1 µM", "33.3 µM", "38.4 µM", "7.32 µM"]
